This listing pairs compounds with measured melting point.

Cc1nc(Cl)cc(-c2ccc(F)cc2)n1
95 to 98 °C
CCOC(=O)C(Cc1ccc(F)cc1)C(=O)c1ccc(C(F)(F)F)cc1 (stereo not given)
52 to 53 °C

input: Bench note: what melting point did "COc1ccc(Cn2nc(CN3CCN(c4ccccc4OC)CC3)c3cc(OC)c(OC)cc32)cc1OC" show?
output: 149 to 150 °C

input: Bench note: what melting point did "CCc1c(-c2ccc(O)cc2)c2cc(COC)c3cccc1n32" show?
output: 137 to 141 °C

###

This listing pairs molecules with measured melting point.

COc1cc2c(cc1OCc1ccccc1)C(C#N)(Sc1ccccc1)C2 (centres undefined)
109 to 110 °C
O=C(Cc1ccncc1)c1ccc(Cl)cc1
95.5 to 97.3 °C
Cc1nc(C)c(-c2ccnc(Nc3cccc(CN)c3)n2)s1
183 to 184 °C
Cc1ccccc1CNC(=O)[C@@H]1CSCN1C(=O)[C@@H](O)[C@H](Cc1ccccc1)NC(=O)C(C)C(C)C(=O)OC[C@H]1O[C@@H](n2cc(C)c(=O)[nH]c2=O)CC1N=[N+]=[N-] (some centres undefined)
114 to 115 °C

input: Bench note: what melting point did "Nc1ccc(Oc2ccccc2C(=O)Oc2ccccc2)cc1" show?
output: 102 °C

input: Bench note: what melting point did "C[C@@H](n1cnc2c(Br)cc(Br)cc2c1=O)[C@](O)(Cn1cncn1)c1ccc(F)cc1F" show?
output: 134 to 135 °C

input: Bench note: what melting point did "COc1cc(C(N)=S)c2c(c1OC)C(=O)CC2" show?
output: 196 to 199 °C

input: Bench note: what melting point did "CCCCCCCN(CC1(c2ccccc2)CCCC1)C(=O)Nc1ccc(F)cc1F" show?
output: 88 to 90 °C

input: Bench note: what melting point did COc1ccc2c(SC(C)(C)C)c(C(C)C(C)(C)C(=O)O)[nH]c2c1 (centres undefined) show?
output: 133 °C

###

result type: melting point

CC(C)(C)SCC1(C(=O)O)Cc2ccccc2C1
158 to 163 °C
CCOC(=O)C(Cc1ccc(CC(F)(F)C(F)(F)F)cc1)C(=O)c1cccc(Cl)c1 (stereo not given)
81 to 82 °C
Cc1cc([N+](=O)[O-])sc1C(=O)c1sc(Nc2ccc(S(N)(=O)=O)cc2)nc1N
268 to 269 °C
CC(C)(C)C(NC(=O)c1ccc(Cl)cc1)NC(=C[N+](=O)[O-])Nc1cccnc1 (stereo not given)
195 to 196 °C
CC(C)(C)OC(=O)C(C)(C)ON=C1C=CC=CC1CC(=O)O (stereo not given)
102 to 105 °C

input: Bench note: what melting point did "CSc1cc(C)nc(SC)c1NC(=O)CCCCCCCCSc1nc2ccccc2o1" show?
output: 123 to 124 °C

###

result type: melting point

Recorded melting point, per entry:
CCCCCCCCCCCCCCN(C)c1ccc([N+](=O)[O-])cc1C(=O)O
100 to 101 °C
c1ccc2c(c1)CSc1nncn1-2
188 to 190 °C
CN1CC(N(C(=O)c2ccc(Cl)cc2)c2ccccc2)CN1C
104 to 108 °C
COc1ccc(-c2c3cccc(C(F)(F)F)c3nn2CC(C)C)c(OC)c1
111 to 112 °C

input: Bench note: what melting point did OC(CNC1CCC1)c1cc(C(F)(F)F)nc2c(C(F)(F)F)cccc12 (stereo unspecified) show?
output: 145 °C

input: Bench note: what melting point did COC(=O)CC(C#Cc1cccc(-c2noc(C)n2)c1)c1ccc(OC)c(OC2CCCC2)c1 (racemic) show?
output: 66 to 68 °C

input: Bench note: what melting point did O=C(O)C1CCc2c(c3ccccc3n2C(=O)c2ccccc2)C1 (stereo unspecified) show?
output: 188 to 190 °C

input: Bench note: what melting point did CC(C)(C)C1=NN(c2ccc(C(=O)O)cc2)C(c2ccc(Br)cc2)C1 (stereo unspecified) show?
output: 222 °C

input: Bench note: what melting point did "COc1cc(Nc2ncc(-c3ccccc3)o2)ccc1-c1cnco1" show?
output: 212 to 215 °C

input: Bench note: what melting point did "CC(C)(C)C(=O)Nc1nc(O)c2cc(CCc3ccc(C(=O)O)cc3)cnc2n1" show?
output: > 300 °C

input: Bench note: what melting point did "COC(C)(C)c1cccc(Cn2nnc3c(-c4ccc(C)o4)nc(N)nc32)n1" show?
output: 178 °C

input: Bench note: what melting point did "O=C(CN1CCC(CCc2ccccc2)CC1)Nc1ccc2c(c1)OCC(=O)N2" show?
output: 200 to 203 °C

input: Bench note: what melting point did O=C(Nc1ccccc1)NC1CCN2CCc3ccccc3C2C1 (stereo unspecified) show?
output: 210 °C

input: Bench note: what melting point did C=C[C@H]1OC(C)(C)O[C@@H](CC(=O)OCc2ccccc2)[C@H]1NC(=O)OCc1ccccc1 (relative stereo) show?
output: 39 to 40.8 °C

input: Bench note: what melting point did "COC(=O)c1cc(NC(=O)c2cc(Br)ccc2Cl)ccc1-n1nc(C(F)(F)F)cc1C(F)(F)F" show?
output: 75 to 76 °C

input: Bench note: what melting point did "CCOC(=O)C(NC(=O)CCNC(=O)CO)C(=O)OCC" show?
output: 94.5 to 96 °C

input: Bench note: what melting point did "Clc1cnc(Cl)c2cc(Br)ccc12" show?
output: 134 to 135 °C

input: Bench note: what melting point did "Cn1cc(-c2cccc(Cl)c2)c(=O)c(-c2ccccc2Cl)c1" show?
output: 160 to 161 °C

input: Bench note: what melting point did "N#CCc1cn(-c2ccccc2)nc1OCc1ccccc1" show?
output: 102 to 103 °C

input: Bench note: what melting point did CC1CN(C)CC=C1C(=O)N1c2ccccc2NC(=O)c2ccccc21 (stereo unspecified) show?
output: 223 to 224 °C

input: Bench note: what melting point did "CCOC(OCC)C(N)=O" show?
output: 47 to 51 °C

input: Bench note: what melting point did "CC(C)(C)Nc1nc(C#N)c(C#N)nc1N" show?
output: > 250 °C

###

This listing pairs molecules with measured melting point.

Cc1cnc2n1-c1cc(Cl)c(Cl)cc1N=C(c1ccc(-n3c(C)nnc3C)cc1)C2
165 °C
COc1ccc2c(c1OC)CC(c1ccccc1)C=C2C#N (stereo not given)
109 to 110 °C
O=C(c1cccs1)c1cnn2c(-c3cccc(NCc4ccoc4)c3)ccnc12
140 to 144 °C

// switching to the query molecule
input: Bench note: what melting point did "CCC1(CC)NS(=O)(=O)c2ccccc21" show?
output: 174 °C

###

This listing pairs molecules with measured melting point.

CCOC(=O)c1[nH]c2ccc(Cl)cc2c1-c1ccccc1
171 to 172 °C
O=C1NC[C@@H](C(=O)NCCO[N+](=O)[O-])O1
101 to 103 °C
CCCOc1ccccc1-c1nc2nc(N(CCC)CCC)ncc2c(=O)[nH]1
123 to 124 °C
O=C(O)C1Cc2ccc(OCc3ccccc3)cc2O1 (centres undefined)
118 to 119 °C

input: Bench note: what melting point did CCOC(=O)C1(C)ON=C(C2(C)CC(c3ccc(OC)c(OC4CCCC4)c3)=NO2)O1 (centres undefined) show?
output: 139 to 140 °C

input: Bench note: what melting point did "Cn1cccc(Cc2cc3cccc(-c4cccc(C(=O)NCCO)c4)c3s2)c1=O" show?
output: 173 to 174 °C

input: Bench note: what melting point did "O=S(=O)(Nc1cc(C(F)(F)F)ccc1-c1cc(Oc2ccc3cccnc3c2)ncn1)c1ccccc1" show?
output: 168 to 170 °C

input: Bench note: what melting point did "Cc1c(C(=O)Nc2ccc(N3CCN(CCCc4cccnc4)CC3)c(C#N)c2)cnn1-c1ccc(Cl)cc1" show?
output: 201 to 203 °C

input: Bench note: what melting point did COc1ccc(C2OCC(C)(C)C(C(=O)NCCC(=O)O)O2)cc1 (centres undefined) show?
output: 135 to 136 °C

###

This listing pairs molecules with measured melting point.

CCCN(CCC)C(Cc1cccc(OC)c1N(C(C)=O)C(C)=O)(C(=O)OCC)C(=O)OCC
72 to 75 °C
COc1cc2c(cc1C)C1(CO2)C(=O)N(CC2CCCCO2)c2ccccc21 (configuration not stated)
180 to 182 °C
CC1CCN(c2ccc(N)cc2C(=O)c2ccc(Cl)cc2)CC1
89 °C
Cc1ccc(S(=O)(=O)OCC2COc3ccc4[nH]c(C(F)(F)F)nc4c3O2)cc1 (configuration not stated)
114 to 116 °C
CC(=O)N(Cc1ccccc1)c1c(F)c(F)cc(F)c1C(=O)O
150 to 153 °C

// switching to the query molecule
input: Bench note: what melting point did "COc1cc(OC)cc(N2CCN(C(=S)Nc3nc(C)c(C)nc3OC)CC2)c1" show?
output: 71 to 73 °C

###

This listing pairs compounds with measured melting point.

COc1cc(OC)c(NC2=Nc3ccccc3CS2)cc1Cl
157 to 158 °C

input: Bench note: what melting point did "COc1ccc(CNc2nc(OCc3ccccn3)ncc2C(=O)OCc2ccccn2)cc1Cl" show?
output: 115 to 120 °C

input: Bench note: what melting point did "COc1ccc(-c2nc(COCCc3cccc(NS(=O)(=O)C(F)(F)F)c3)cs2)cc1" show?
output: 112 to 113 °C

input: Bench note: what melting point did "CCOc1cc(CO)ccc1OCc1nc(-c2ccco2)oc1C" show?
output: 141 to 142 °C

input: Bench note: what melting point did "Cc1ccc(Sc2ccccc2)c(C(=O)O)c1" show?
output: 156 to 157 °C

input: Bench note: what melting point did "Oc1ccc(OC[C@@H](O)CNCCc2ccc(-n3c(CCC4CCCC4)nc4cccnc43)cc2)cc1" show?
output: 59 to 61 °C

input: Bench note: what melting point did CCNC(=O)C1OC(n2cnc3c(NC(=O)Nc4ccc(S(=O)(=O)N5CCCCC5)cc4)ncnc32)C(O)C1O (stereo not given) show?
output: 176 to 178 °C

input: Bench note: what melting point did CCc1ncccc1NC(=NC#N)NC(NC(=O)Cc1ccc(Cl)cc1)C(C)(C)C (stereo not given) show?
output: 112 to 114 °C

input: Bench note: what melting point did "COc1cc(CN2CCN(c3ccc(C(=O)NC4CC4)cc3C)CC2)cc2c1OCC(=O)N2" show?
output: 220 to 228 °C

input: Bench note: what melting point did "c1cncc(CN2CCN(CCCCc3c[nH]c4ccc(-n5cnnc5)cc34)CC2)c1" show?
output: 110 to 112 °C

input: Bench note: what melting point did O=C1NC(=O)C(Cc2ccc(OCCON=Cc3ccncc3)cc2)S1 (stereo not given) show?
output: 221 °C

input: Bench note: what melting point did "Cn1ncc2c1-c1c(SC(C)(C)C)sc(C(N)=O)c1CC2" show?
output: 146 to 147 °C

input: Bench note: what melting point did "Cc1ccc(CC(O)(P(=O)(O)O)P(=O)(O)O)cc1" show?
output: 211 to 213 °C

input: Bench note: what melting point did "COC(=O)[C@@H](Cc1ccccc1)Oc1c(Br)cc(-c2c3ccccc3c(Br)c3sc(C)c(C)c23)cc1Br" show?
output: 174 to 175 °C

input: Bench note: what melting point did "COc1cc(-c2nc(-n3cncn3)c3c(C)c(C#N)sc3n2)cc(OC)c1OC" show?
output: 236 to 240 °C

input: Bench note: what melting point did "NC(=O)c1c(N)cccc1OCCOc1ccccc1" show?
output: 127 to 130 °C

input: Bench note: what melting point did "CN(C)C=C1CCc2cnccc2C1=O" show?
output: 76 to 79 °C

input: Bench note: what melting point did "Cc1cn(CC#CCN2CCCC2=O)cn1" show?
output: 134 to 137 °C

input: Bench note: what melting point did "Cn1ncc2c1-c1c(Oc3ncccn3)sc(C(=O)O)c1CC2" show?
output: 256 to 258 °C

input: Bench note: what melting point did "O=C(O)C(O)=CC(=O)c1cn(Cc2ccc(C(F)(F)F)cc2)c(=O)n(Cc2ccc(C(F)(F)F)cc2)c1=O" show?
output: 176 to 178 °C

input: Bench note: what melting point did CNC(=S)C1(c2cnccn2)CCCS1 (stereo not given) show?
output: 127 °C

input: Bench note: what melting point did COC(=O)C(c1ccccc1)c1ccccn1 (racemic) show?
output: 74 °C

input: Bench note: what melting point did "O=[N+]([O-])c1ccc(/C=C/c2c(F)cccc2F)cc1" show?
output: 136 to 137 °C

input: Bench note: what melting point did "COc1ccc(S(=O)(=O)N(Cc2cccnc2)c2c(C(=O)NO)cnc3c2c(C)nn3C)cc1" show?
output: 202 to 204 °C

input: Bench note: what melting point did O=C(O)CC(Sc1nc2ccccc2s1)C(=O)O (stereo not given) show?
output: 165 to 168 °C
